SYSTEM: BaF3 BRAF-KIAA1549 fusion cells (Homo sapiens, UniProt P15056)
Construct: The BRAF-KIAA1549 fusion mutant was subcloned into pMXs-IRES-Blasticidin (RTV-016, Cell Biolabs, San Diego, CA); No tag given; Q9HCM3 (UPF0606 protein KIAA1549)
Sequence (P15056 whole entry, change not shown, the tested form may be a part): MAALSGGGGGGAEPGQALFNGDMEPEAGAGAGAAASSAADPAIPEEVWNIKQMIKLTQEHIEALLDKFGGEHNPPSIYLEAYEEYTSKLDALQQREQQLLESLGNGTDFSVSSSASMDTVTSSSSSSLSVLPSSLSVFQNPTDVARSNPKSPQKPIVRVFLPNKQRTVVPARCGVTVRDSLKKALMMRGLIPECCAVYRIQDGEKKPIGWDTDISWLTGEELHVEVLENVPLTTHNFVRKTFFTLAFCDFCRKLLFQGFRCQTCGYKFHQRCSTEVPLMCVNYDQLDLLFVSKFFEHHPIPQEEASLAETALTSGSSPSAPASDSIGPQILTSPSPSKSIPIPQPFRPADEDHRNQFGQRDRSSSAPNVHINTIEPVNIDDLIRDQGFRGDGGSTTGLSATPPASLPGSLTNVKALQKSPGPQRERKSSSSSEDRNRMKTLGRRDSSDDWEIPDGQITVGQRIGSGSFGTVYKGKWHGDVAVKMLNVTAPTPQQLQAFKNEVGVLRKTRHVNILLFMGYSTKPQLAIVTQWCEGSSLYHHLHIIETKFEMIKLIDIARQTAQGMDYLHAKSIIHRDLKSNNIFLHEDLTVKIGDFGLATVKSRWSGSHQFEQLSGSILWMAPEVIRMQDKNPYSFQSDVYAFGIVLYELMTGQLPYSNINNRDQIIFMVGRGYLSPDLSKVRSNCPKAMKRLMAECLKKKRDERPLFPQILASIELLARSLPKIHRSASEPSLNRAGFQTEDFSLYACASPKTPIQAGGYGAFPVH
ASSAY_OVERVIEW: BaF3 BRAF-KIAA1549 fusion cell proliferation assay (CellTiterGlo, 96 hours)
Assay type: cell-based
RUN_PARAMETERS: Table A1
ENDPOINT_LABEL: GI50

# example entries with known answers
> print(dat)
                                   compound        result
1  CNc1cc2ncc(-c3cc(NC(=N)c4cc(C(F)(F)F)ccn4)cnc3C)cc2cn1      ≥ 500 nM
2  CNc1cc2ncc(-c3cc(NC(=O)c4cc(C(C)(C)C#N)ccn4)cnc3C)cc2cn1  20 to 100 nM
3  CNc1cc2ncc(-c3cc(NC(=O)c4cc(C(C)(C)C#N)ccn4)ccc3F)cc2cn1  20 to 100 nM
4  CNc1cc2ncc(-c3cc(NC(=O)c4cc(C(C)(C)C#N)ccn4)c(F)cc3C)cc2cn1  20 to 100 nM
5  CNc1cc2ncc(-c3cc(NC(=O)c4cc(C(F)(F)F)ccn4)nnc3C)cc2cn1  20 to 100 nM

Entry under test: CNc1cc2ncc(-c3cc(NC(=O)c4cc(C(C)(C)C#N)ccn4)c(F)c(F)c3C)cc2cn1 . Its GI50 was ≥ 500 nM

Entry under test: CNc1cc2ncc(-c3cc(NC(=O)c4cc(C(C)(C)C#N)ccn4)ccc3C)cc2cn1 . Its GI50 was < 20 nM
